# Tested on: S. aureus RN4220
# assay_method_text: growth inhibition call (relative growth <= 0.2)
# experimental_context: 50 µM
About 500 (1.3%) of roughly 39,000 compounds were called active. The list comes from a sample in which actives are over-represented; it also holds close analogues and randomly drawn compounds.
Lab note: assign the record to one of active, inactive

Each compound tested received a call. Report the one for CC1(C)SC2C(NC(=O)C(NC(=O)N3CCNC3=O)c3ccccc3)C(=O)N2C1C(=O)[O-].[Na+] (centres undefined) .
active

What would you report for OCCc1ccc2c(c1)OCO2 ?
inactive

Now this one: C[C@H](CO)N1C[C@H](C)[C@@H](CN(C)C(=O)Nc2cccc(C(F)(F)F)c2)OCc2cnnn2CCCC1=O
inactive

Again, but for CN[C@@H](C)C(=O)N[C@H]1CN(C(=O)CC(C)C)CC[C@H]2CC[C@@H](C(=O)NC(c3ccccc3)c3ccccc3)N2C1=O
inactive

What do you get for CC1(C)SC2C(NC(=O)C(C(=O)[O-])c3ccsc3)C(=O)N2C1C(=O)[O-].[Na+].[Na+] (centres undefined) ?
inactive

Likewise for CC1(C)SC2C(NC(=O)C(C(=O)[O-])c3ccccc3)C(=O)N2C1C(=O)[O-].[Na+].[Na+] (centres undefined) ?
active

Now consider C[C@@H]1CN([C@@H](C)CO)C(=O)CCCn2nncc2CO[C@@H]1CN(C)C(=O)Nc1cccc(C(F)(F)F)c1 and answer again.
inactive

Try this compound too: C[C@H](CO)N1C[C@H](C)[C@@H](CN(C)S(C)(=O)=O)Oc2cc(-c3ccccc3F)ccc2S1(=O)=O
inactive

How about this compound: O=C1C=CC(=O)N1
active

----------
# Test system: S. aureus RN4220
# assay_method_text: growth inhibition call (relative growth <= 0.2)
# experimental_context: 50 µM
Among all 39,000 compounds or so, about 500 (1.3%) were called active. The list comes from a sample in which actives are over-represented; it also holds close analogues and randomly drawn compounds.
Hi there, use one of these labels in your reply, thanks! class 1 (active), class 0 (inactive)

Please share the test call associated with c1ccc(CCNc2ccnc3cc4ccccc4cc23)cc1 .
class 1

Proceed to C[C@H](CO)N1C[C@H](C)[C@@H](CN(C)C(=O)Nc2ccccc2)OCCCC[C@H](C)Oc2ccc(NC(=O)Nc3cccc4ccccc34)cc2C1=O
class 0

Can you handle C[C@@H]1CN([C@@H](C)CO)C(=O)c2cc(C#CC3(O)CCCC3)cnc2O[C@@H]1CN(C)S(=O)(=O)c1ccc(F)cc1 next?
class 0

Consider next the molecule C[C@H]1CN([C@@H](C)CO)C(=O)Cc2cc(NS(C)(=O)=O)ccc2O[C@@H]1CN(C)C(=O)Nc1ccc(C(F)(F)F)cc1 in the same way.
class 0

----------
# Test system: S. aureus RN4220
# assay_method_text: growth inhibition call (relative growth <= 0.2)
# experimental_context: 50 µM
Screen size: about 39,000 compounds; about 500 (1.3%) were called active. The entries come from a sample that favours actives as a whole.
The categories you may choose from are active, inactive

Write down the call the test reported for this compound. Item: O=C(N[C@@H](c1cccnc1)c1ccc2c(c1)OCO2)C1CCN(CCOc2ccc(Cl)cc2Cl)CC1
active

Proceed to COc1ccc([C@@H](NC(=O)C2CCN(CCOc3ccc(Cl)cc3Cl)CC2)c2ccco2)cc1
inactive

Check NCc1nnnn1-c1ccccc1 too.
inactive

Now the compound C=C(NC(=O)C(=C)NC(=O)c1csc(C2=N[C@@H]3c4csc(n4)[C@@H]4NC(=O)c5csc(n5)[C@H](C(C)(O)[C@@H](C)O)NC(=O)[C@H]5CSC(=N5)/C(=C/C)NC(=O)[C@H]([C@@H](C)O)NC(=O)c5csc(n5)[C@]3(CC2)NC(=O)[C@@H](C)NC(=O)C(=C)NC(=O)[C@@H](C)NC(=O)[C@@H]([C@H](C)CC)N[C@H]2C=Cc3c([C@@H](C)O)cc(nc3[C@@H]2O)C(=O)O[C@H]4C)n1)C(N)=O (stereo not given in full)
inactive

Cc1cccnc1[C@@H](NC(=O)C1CCN(CCOc2ccc(Cl)cc2Cl)CC1)c1ccc(F)cc1 ?
active

Repeat with C[C@@H]1CN([C@@H](C)CO)C(=O)c2cc(NS(C)(=O)=O)ccc2O[C@@H]1CN(C)C(=O)NC1CCCCC1
inactive

Now try Cc1cccnc1[C@@H](NC(=O)C1CCN(CCOc2ccc(Cl)cc2Cl)CC1)c1ccc(Cl)cc1 .
active

Here is the next compound: C=CCOC(=O)[C@H]1[C@@H]2C(=O)O[C@@H](c3ccccc3)[C@@H](c3ccccc3)N2[C@@H](c2ccc(OCCOC(=O)[C@@H]3C[C@@H]4C(=O)N[C@@H](CC(C)C)C(=O)N4[C@@H]3c3ccc(O)cc3)cc2)[C@]12C(=O)Nc1ccccc12
inactive

Please do the same for C[C@@H]1CCCCO[C@H](CN(C)Cc2ccccc2)[C@@H](C)CN([C@@H](C)CO)C(=O)c2cc(NS(=O)(=O)c3ccc(F)cc3)ccc2O1 as well.
inactive

Consider next the compound COc1ccc(NC(=O)Nc2cccc3c2O[C@H](CN(C)C(=O)Nc2ccc(C(F)(F)F)cc2)[C@@H](C)CN([C@@H](C)CO)C3=O)cc1 in the same way.
inactive

Do the same for O=C(N[C@H](c1ccc(Cl)cc1)c1ccsc1)C1CCN(Cc2ccc(Oc3ccccc3)cc2)CC1 please
inactive

Try this compound next: O=C(N[C@H](c1ccc(Cl)cc1)c1ccccn1)C1CCN(CCOc2ccc(Cl)cc2Cl)CC1
active

Next compound: Cc1cccnc1[C@@H](NC(=O)C1CCN(Cc2ccc(Cl)c(Cl)c2)CC1)c1ccc(Cl)cc1
inactive

Then this compound: O=C(C[C@@H]1CC[C@H]2[C@@H](COC[C@H](O)CN2C(=O)Nc2ccc(Cl)c(Cl)c2)O1)NCc1ccc(Cl)c(Cl)c1
active

Field entry: O=C(NO)c1ccc(C(=O)N/N=C/[C@H](O)[C@@H](O)[C@H](O)CO)cc1
inactive

Now consider C[C@H](CO)N1C[C@H](C)[C@H](CN(C)C(=O)Nc2ccc(C(F)(F)F)cc2)Oc2c(NC(=O)Nc3ccc(F)cc3)cccc2C1=O .
inactive

And then C[C@@H]1CCCCO[C@H](CN(C)C(=O)Nc2ccccc2)[C@H](C)CN([C@H](C)CO)C(=O)c2cc(NS(=O)(=O)c3ccc(Cl)cc3)ccc2O1 , what is it?
inactive

Next record, please: Cl.O=C(O)c1cn(-c2ccc(F)cc2)c2cc(N3CCNCC3)c(F)cc2c1=O
active

Item: COc1ccc([C@@H](NC(=O)C2CCN(CCOc3ccc(Cl)cc3Cl)CC2)c2ccccn2)cc1
inactive

Also, O=C(N[C@H](c1ccc(F)cc1)c1ccc2ccccc2n1)C1CCN(CCOc2ccc(Cl)cc2Cl)CC1 please.
inactive

Can you handle CC1=C(C(=O)O)N2C(=O)[C@@H](NC(=O)[C@H](N)C3=CCC=CC3)[C@H]2SC1 next?
inactive

Proceed to O=C(CN1CCNCC1)c1ccc(F)cc1
inactive

Same question, COc1ccc(NC(=O)N(C)C[C@H]2OCCCC[C@H](C)Oc3ccc(NC(=O)c4ccncc4)cc3C(=O)N([C@@H](C)CO)C[C@@H]2C)cc1 this time
inactive

What would you report for Cc1ccc(C(=O)O)c(=O)n1C ?
inactive

Again, but for COc1ccc([C@@H](NC(=O)C2CCN(Cc3ccc(Oc4ccccc4)cc3)CC2)c2ccccn2)cc1
inactive

Also O=C(c1ccccc1F)N1CCNCC1 , if possible.
inactive

Also COc1ccc(NC(=O)N(C)C[C@@H]2Oc3c(NC(=O)Nc4ccc(C(F)(F)F)cc4)cccc3C(=O)N([C@@H](C)CO)C[C@@H]2C)cc1 , if possible.
active

Please do the same for C[C@H]1CN([C@@H](C)CO)C(=O)c2cccc(NC(=O)Nc3ccc(C(F)(F)F)cc3)c2O[C@H]1CN(C)C(=O)Nc1ccc(F)cc1 as well.
inactive

Next entry: Nc1nnnn1-c1ccccc1
active

Next compound up: Cc1noc(C)c1NC(=O)Nc1cccc2c1O[C@@H](CN(C)C(=O)Nc1ccc(C(F)(F)F)cc1)[C@@H](C)CN([C@H](C)CO)C2=O
inactive

----------
# Tested on: S. aureus RN4220
# assay_method_text: growth inhibition call (relative growth <= 0.2)
# experimental_context: 50 µM
In all, about 39,000 compounds went through this assay and about 500 (1.3%) were called active. This excerpt belongs to a sample that is enriched for actives.
// one of active, inactive, no free text

Name the outcome recorded for COc1ccc(S(=O)(=O)N(C)C[C@@H]2OCCCC[C@@H](C)Oc3ccc(NC(=O)NC4CCCCC4)cc3C(=O)N([C@H](C)CO)C[C@H]2C)cc1 in the assay.
inactive

Next molecule up: CN[C@H]1CN(c2ccc3c(=O)c(C(=O)O)cn(-c4nccs4)c3n2)C[C@@H]1OC
inactive

Cool, now Cc1ccc(C)c(Cc2cc(Cl)ccc2Cl)c1
inactive

Now the same for COc1cccc(NC(=O)C[C@@H]2CC[C@@H]3[C@H](COc4ccc(NC(=O)C5CCOCC5)cc4C(=O)N3C)O2)c1
inactive

How about C[C@@H](N)c1ccc(F)cc1F ?
inactive

Query C[C@@H]1CN([C@@H](C)CO)C(=O)c2cc(NC(=O)Cc3ccccc3)ccc2O[C@@H](C)CCCCO[C@H]1CN(C)Cc1ccc2c(c1)OCO2 next
inactive

Cool, now CC(C)NC(=O)Nc1ccc2c(c1)C(=O)N([C@H](C)CO)C[C@@H](C)[C@@H](CN(C)Cc1ccc(Cl)c(Cl)c1)OCCCC[C@H](C)O2
inactive

Here is the next molecule: O=C(O)CN(CCN(CC(=O)O)CC(=O)O)CC(=O)O
inactive

Likewise for FC(F)(F)c1cc(NC(=S)Nc2ccc(Br)cc2-c2nn[nH]n2)cc(C(F)(F)F)c1 ?
active

Follow-up item: C=Cn1cnc2c1c(=O)n(C)c(=O)n2C
inactive

# repeat for O=C(Nc1cc(C(F)(F)F)cc(C(F)(F)F)c1)Nc1c(Br)cc(Br)cc1-c1nn[nH]n1
active

Can you handle COc1ccc(NC(=O)Nc2ccc3c(c2)C(=O)N([C@H](C)CO)C[C@H](C)[C@@H](CN(C)C(=O)c2ccccc2)OCCCC[C@H](C)O3)cc1 next?
inactive

How about this molecule: Cc1ccc(S(=O)(=O)O)cc1.NC1CCN(c2nc3c(cc2F)c(=O)c(C(=O)O)cn3-c2ccc(F)cc2F)C1.O (configuration not stated)
inactive

OC[C@H]1COc2ccccc2O1 ?
inactive

Cool, now CC(C)NC(=O)N(C)C[C@@H]1Oc2ccc(NC(=O)Cc3ccccc3)cc2CC(=O)N([C@H](C)CO)C[C@@H]1C
inactive

Repeat for the following molecule: Cc1noc(C)c1NC(=O)Nc1ccc2c(c1)C(=O)N([C@@H](C)CO)C[C@H](C)[C@H](CN(C)C(=O)NC1CCCCC1)OCCCC[C@@H](C)O2
inactive

Now this one: Cc1noc(C)c1NC(=O)Nc1ccc2c(c1)C(=O)N([C@@H](C)CO)C[C@@H](C)[C@@H](CN(C)Cc1ccc(C(=O)O)cc1)OCCCC[C@H](C)O2
inactive
